- tested.system: Adenosine receptor A3 (Homo sapiens, UniProt P0DMS8)
- Sequence (P0DMS8 whole entry): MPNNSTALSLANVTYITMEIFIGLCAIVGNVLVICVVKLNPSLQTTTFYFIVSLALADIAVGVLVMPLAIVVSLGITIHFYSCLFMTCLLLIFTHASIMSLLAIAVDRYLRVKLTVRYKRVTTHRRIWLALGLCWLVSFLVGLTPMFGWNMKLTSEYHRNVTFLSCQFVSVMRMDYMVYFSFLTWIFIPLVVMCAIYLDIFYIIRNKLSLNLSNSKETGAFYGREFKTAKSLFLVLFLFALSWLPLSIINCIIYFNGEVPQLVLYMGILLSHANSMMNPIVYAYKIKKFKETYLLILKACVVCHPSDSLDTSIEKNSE
- test.name: Inhibitory concentration as antagonistic activity against cAMP generation inhibited by IB-MECA in CHO cell membranes transfected with human Adenosine A3 receptor
- Type: functional, cell-based
measurement.label: IC50 (nM)
Your answer is read as nM, so omit the unit and give the number.

> print(dat)
                           smiles.entry  observed.value
1  CCCn1cc2c(nc(N)n3nc(-c4ccco4)nc23)n1            40.2

--- query ---
# input Request the reported IC50 associated with `CCn1cc2c(nc(NC(=O)Nc3cccc(Cl)c3)n3nc(-c4ccco4)nc23)n1`
# output 15.1

###

- tested.system: UniProtKB P29274
- Sequence (P29274 whole entry): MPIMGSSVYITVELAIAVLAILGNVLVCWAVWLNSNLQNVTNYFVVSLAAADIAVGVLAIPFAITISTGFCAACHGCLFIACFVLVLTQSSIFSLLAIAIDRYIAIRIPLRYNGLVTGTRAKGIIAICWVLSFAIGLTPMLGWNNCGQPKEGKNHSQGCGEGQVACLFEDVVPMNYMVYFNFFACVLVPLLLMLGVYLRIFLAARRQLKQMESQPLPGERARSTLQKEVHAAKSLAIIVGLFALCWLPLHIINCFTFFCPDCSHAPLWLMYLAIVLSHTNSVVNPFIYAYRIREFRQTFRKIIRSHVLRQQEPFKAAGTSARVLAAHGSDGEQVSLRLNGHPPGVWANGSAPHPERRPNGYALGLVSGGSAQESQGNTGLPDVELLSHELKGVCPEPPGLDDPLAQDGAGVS
- test.name: Displacement of specific [3H]-SCH- 58261 binding at human Adenosine A2A receptor expressed in HEK293 cells
- Format: cell-based
Known log10 Ki of a selection of compounds
Form field - Quantity: Ki; Unit: nM; Scale: log10

Worked set:
> print(dat)
                               smiles.entry  observed.value
1       CCn1cc2c(nc(N)n3nc(-c4ccco4)nc23)n1            0.28
2  O=C(Nc1cccc(Cl)c1)Nc1nc2nn(CCc3ccccc3)cc2c2nc(-c3ccco3)nn12            2.04

# input Request the reported log10 Ki associated with `CCCn1cc2c(nc(N)n3nc(-c4ccco4)nc23)n1`
# output 0.41

# input Request the reported log10 Ki associated with `Nc1nc2nn(CCCc3ccccc3)cc2c2nc(-c3ccco3)nn12`
# output -0.74

# input Request the reported log10 Ki associated with `Nc1nc2nn(CCc3ccccc3)cc2c2nc(-c3ccco3)nn12`
# output -0.51

###

A short record of Ki observed with Adenosine receptor A1 (Homo sapiens) follows.
Sequence (P30542 whole entry): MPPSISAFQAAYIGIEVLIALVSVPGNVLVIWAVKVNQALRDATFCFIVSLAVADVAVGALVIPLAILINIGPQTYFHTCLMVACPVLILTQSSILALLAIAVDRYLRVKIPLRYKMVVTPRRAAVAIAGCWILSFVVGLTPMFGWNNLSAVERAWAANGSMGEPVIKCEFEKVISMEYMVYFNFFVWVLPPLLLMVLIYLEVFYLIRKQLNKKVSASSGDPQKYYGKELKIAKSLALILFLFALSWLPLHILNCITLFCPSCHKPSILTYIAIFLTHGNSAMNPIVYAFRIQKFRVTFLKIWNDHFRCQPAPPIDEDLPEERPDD
Your answer is read as nM, so omit the unit and give the number.

Worked set:
> print(dat)
                               smiles.entry  measurement.unit  observed.value
1       CCn1cc2c(nc(N)n3nc(-c4ccco4)nc23)n1                nM               5
2  O=C(Nc1cccc(Cl)c1)Nc1nc2nn(CCCc3ccccc3)cc2c2nc(-c3ccco3)nn12                nM            1500

# input Request the reported Ki associated with `Nc1nc2nn(CCc3ccccc3)cc2c2nc(-c3ccco3)nn12`
# output 1

# input Request the reported Ki associated with `Nc1nc2nn(CCCc3ccccc3)cc2c2nc(-c3ccco3)nn12`
# output 3

# input Request the reported Ki associated with `O=C(Nc1cccc(Cl)c1)Nc1nc2nn(CCc3ccccc3)cc2c2nc(-c3ccco3)nn12`
# output 251

###

Known inhibition of a selection of compounds
- tested.system: Adenosine receptor A3 (Homo sapiens)
- test.name: Percent inhibition of cAMP-accumulation in CHO cells by IB-MECA at 1 uM.
- Type: functional, cell-based
Your answer is read as %, so omit the unit and give the number.

Worked set:
> print(dat)
                               smiles.entry  measurement.label  measurement.unit  observed.value
1  Nc1nc2nn(CCc3ccccc3)cc2c2nc(-c3ccco3)nn12         inhibition                 %               5
2  O=C(Nc1cccc(Cl)c1)Nc1nc2nn(CCc3ccccc3)cc2c2nc(-c3ccco3)nn12         inhibition                 %              62
3  Nc1nc2nn(CCCc3ccccc3)cc2c2nc(-c3ccco3)nn12         inhibition                 %               6
4  COc1ccc(NC(=O)Nc2nc3nn(CCc4ccccc4)cc3c3nc(-c4ccco4)nn23)cc1         inhibition                 %              81
5  COc1ccc(NC(=O)Nc2nc3nn(CCCc4ccccc4)cc3c3nc(-c4ccco4)nn23)cc1         inhibition                 %              56

--- query ---
# input Report inhibition for `CCn1cc2c(nc(N)n3nc(-c4ccco4)nc23)n1` tested on Adenosine receptor A3 (Homo sapiens).
# output 3
